Recorded pIC50 values (GST-tagged SIK2 (Homo sapiens (Human), UniProt Q9H0K1)) are given below.
# pIC50 = -log10(concentration in molar units)

Below, 3 molecules whose answers are already recorded.
COc1cc(-c2c3c(C#N)cc(-c4cnn(C)c4)cc3nn2C)cc(OC(F)F)c1C(=O)N1CC(N)(C(F)(F)F)C1 ... 7.81
COc1cc(-c2c3c(OCc4cccnc4)cc(-c4cnn(C)c4)cc3nn2C)cc(OC(F)F)c1C(=O)N1CC(O)(C(F)(F)F)C1 ... 9.00
CCn1cc(-c2cc(OC(F)F)c3c(-c4cc(OC)c(C(N)=O)c(OC(F)F)c4)n(C)nc3c2)cn1 ... 8.82

Look at this molecule and give its reported pIC50. COc1cc(-c2c3c(C(F)F)cc(-c4cnn(C[C@H]5C[C@@H](O)C5)c4)cc3nn2C)cc(OC(F)F)c1C(=O)N[C@@H]1CC1(F)F
8.32

The reported numbers originate from patent US20260062387A1.
